Data credit: PubChem BioAssay (NCI)

# Test system: 786-0 renal
# assay comment: NCI tumour cell line growth inhibition, 48 h
compounds and their reported TGI
Reply numerically in µM, unit not repeated.

[[record]]
sample_smiles = "CCCN1CCN(c2ccc3nc(-c4ccc5nc(-c6ccc(OCC)c(OCC)c6)[nH]c5c4)[nH]c3c2)CC1"
endpoint_value = 2.33


Incoming: Which TGI is reported for this compound? COc1ccc(-c2nocc2-c2cc(OC)c(OC)c(OC)c2)cc1
Outgoing: 31.6

Incoming: Field request: TGI | item: C/C(=N\Nc1nc2ccccc2o1)c1ccncn1
Outgoing: 18.3

Incoming: # input compound: Oc1cc2ccccc2cc1-c1n[nH]c(=S)n1-c1ccc(Cl)cc1 ; wanted: its TGI
Outgoing: 49.8

Incoming: State the recorded TGI for this entry: Cc1cccc(NC(=S)N/N=C(/c2ccccc2)c2ccccn2)c1
Outgoing: 14.6

---

# Test system: HS 578T breast
# assay comment: NCI tumour cell line growth inhibition, 48 h
Property: TGI; scope: individual compounds
Answer with a number only, understood to be in µM.

These recorded examples may help you get a feel for the data.
[[record]]
compound = "CCOC1SC(SC)=NN1C(=O)C(OC(C)=O)C(OC(C)=O)C(OC(C)=O)C(OC(C)=O)C(=O)N1N=C(SC)SC1OCC (configuration not stated)"
endpoint_unit = "µM"
endpoint_value = 96.2

[[record]]
compound = "OCSc1nn(CO)c(=S)s1"
endpoint_unit = "µM"
endpoint_value = 42.4

[[record]]
compound = "O=CC1(C2(C=O)c3ccccc3-c3ccccc32)c2ccccc2-c2ccccc21"
endpoint_unit = "µM"
endpoint_value = 7.49

[[record]]
compound = "[N-]=[N+]=NC1=C(c2ccccc2)C(=O)c2cccc3cccc1c23"
endpoint_unit = "µM"
endpoint_value = 48.6

[[record]]
compound = "O=C1c2cccnc2C(=O)c2c1c(C(=O)OCCN1CCOCC1)c1ccccn21"
endpoint_unit = "µM"
endpoint_value = 10.8

[[record]]
compound = "CC[C@]12CCCN3CC[C@]4(C(=C(C(=O)OC)C1)Nc1ccccc14)[C@@H]32"
endpoint_unit = "µM"
endpoint_value = 76.1


Incoming: Can you share its TGI? I mean this compound: C[C@]12CC[C@H]3[C@@H](C[C@@H]4N=C(c5ccc(O)cc5)S[C@@]45C[C@H](O)CC[C@]35C)[C@@H]1CC[C@@H]2O
Outgoing: 60.1

Incoming: // TGI lookup, key: O=C(CCl)Nc1ccc2c(c1)C(=O)c1ccc(NC(=O)CCl)cc1C2=O
Outgoing: 9.57

Incoming: Returns the measured TGI for the input compound. Input: CSc1nc2c(c(=O)[nH]1)C(c1ccc(Cl)cc1)C1=C(N2)/C(=C/c2ccc(Cl)cc2)CNC1 (configuration not stated)
Outgoing: 84.1

Incoming: For the compound shown here, CC1(C)CC[C@]2(C(=O)O)CC[C@]3(C)C(=CC[C@@H]4[C@@]5(C)CC[C@H](OC6OC(CO)C(O)C(O)C6OC6OC(CO)C(O)C(O)C6O)C(C)(C)[C@@H]5CC[C@]43C)[C@@H]2C1 (some centres not stated) , give the reported TGI.
Outgoing: 51.9

Incoming: Requested field: TGI. Item: COc1cc2c3c(c4c5ccccc5[nH]c4c2c(OC)c1OC)C(=O)N(CCN1CCCCC1)C3=O
Outgoing: 4.59

Incoming: Look up TGI: CCCN1CCN(c2ccc3nc(-c4ccc5nc(-c6ccc(OCC)c(OCC)c6)[nH]c5c4)[nH]c3c2)CC1
Outgoing: 3.56

Incoming: Which value of TGI has been reported for C[C@]12CCC(=O)C=C1CC[C@@H]1C2CC[C@]2(C)Nc3c(ncn3-c3ccc(F)cc3)CC12 (some centres not stated) in the records?
Outgoing: 71

Incoming: # query: TGI of entry N=c1oc2c(Cl)cc(Cl)cc2cc1C(=O)Nc1ccccn1
Outgoing: 48.4

---

The reader will find reported GI50 values listed item by item below.
# Test system: SR leukemia
# assay comment: NCI tumour cell line growth inhibition, 48 h

Look over these answered cases.
[[record]]
sample_smiles = "C/C(=N\\NC(=O)c1ccncc1)c1ccc(O)cc1O"
assay_endpoint = "GI50"
endpoint_value = "4160 nM"

[[record]]
sample_smiles = "C=C1N(C)c2ccc(Cl)cc2C1(C)C"
assay_endpoint = "GI50"
endpoint_value = "2740 nM"

[[record]]
sample_smiles = "Cc1nn(-c2ccc(Br)cc2)c(C)c1CC(=O)c1cc(O)ccc1O"
assay_endpoint = "GI50"
endpoint_value = "911 nM"

[[record]]
sample_smiles = "O=C(Nc1ccc(Br)cc1F)c1cc(Br)ccc1O"
assay_endpoint = "GI50"
endpoint_value = "2070 nM"

[[record]]
sample_smiles = "N=c1ccn2c(n1)O[C@@H]1[C@@H](O)[C@H](CO)O[C@@H]12"
assay_endpoint = "GI50"
endpoint_value = "962 nM"


Incoming: Endpoint output: GI50 of COc1ccc(Cn2c(Br)c3c(c2-c2cc(OC)c(OC)c(OC)c2)CCc2sc(NC(C)=O)nc2-3)cc1 . Value?
Outgoing: 2440 nM

Incoming: What value of measured GI50 is listed for O=C(CN1CCN(c2ccc(Cl)cc2)CC1)N1CCN(c2nnc(-c3ccccc3)c(-c3ccccc3)n2)CC1 ?
Outgoing: 2730 nM

---

# Test system: CCRF-CEM leukemia
# assay comment: NCI tumour cell line growth inhibition, 48 h; in the data active = GI50 below about 0.43 µM; inactive = the rest
Write down one outcome, taken from active, inactive

[[record]]
sample_smiles = "COc1ccc(-c2nocc2-c2cc(OC)c(OC)c(OC)c2)cc1"
classification = "active"

[[record]]
sample_smiles = "CCc1ccc(Nc2cc(C)nc3nc(C)nn23)cc1"
classification = "inactive"

[[record]]
sample_smiles = "Cc1ccccc1/C=C1\\CN(C(=O)OC(C)(C)C)C/C(=C\\c2ccccc2C)C1=O"
classification = "inactive"

[[record]]
sample_smiles = "O=C1C(Cl)=C(Nc2cccc(O)c2)C(=O)N1c1cccc(Cl)c1Cl"
classification = "inactive"


Shift focus to the following entry.
Incoming: Query: recorded result category for CCN1CCN(C(=O)[C@]23CCC(C)(C)C[C@@H]2C2=CC[C@@H]4[C@@]5(C)C/C(=C/c6cccnc6)C(=O)C(C)(C)[C@@H]5CC[C@@]4(C)[C@]2(C)CC3)CC1 in this test
Outgoing: inactive

---

# Test system: HT29 colon
# assay comment: NCI tumour cell line growth inhibition, 48 h; in the data active means GI50 below about 0.43 µM; inactive means the rest
Please state which outcome applies, choosing from active, inactive

# count of solved cases: 4
[[record]]
sample_smiles = "O=C(CCl)Nc1ccc2c(c1)C(=O)c1ccc(NC(=O)CCl)cc1C2=O"
classification = "active"

[[record]]
sample_smiles = "C[C@]12CC[C@H]3[C@@H](C[C@@H]4N=C(c5ccc(O)cc5)S[C@@]45C[C@H](O)CC[C@]35C)[C@@H]1CC[C@@H]2O"
classification = "inactive"

[[record]]
sample_smiles = "O=CC1(C2(C=O)c3ccccc3-c3ccccc32)c2ccccc2-c2ccccc21"
classification = "inactive"

[[record]]
sample_smiles = "NC[C@@](O)(c1ccc(Cl)cc1)c1ccc(-c2cn[nH]c2)cc1"
classification = "inactive"


Kindly consider the entry below.
Incoming: I'd appreciate the recorded outcome for O=c1cccc(C#CC#C/C=C/CO)o1 from this test.
Outgoing: inactive

---

# System: HT29 colon
# assay comment: NCI tumour cell line growth inhibition, 48 h; in the data active = GI50 below about 0.43 µM; inactive = the rest
Hello, when you answer, please use one of the following outcomes: active, inactive

The examples below pair each entry with its known result.
[[record]]
compound = "C[C@@]1(N2C(=O)OC[C@@H]2c2ccccc2)C(=O)N([C@H](CC(=O)N2CCC(N3CCCCC3)CC2)C(=O)NCc2cccc(C(F)(F)F)c2)[C@@H]1/C=C/c1ccccc1"
classification = "inactive"

[[record]]
compound = "C/C(=N\\NC(=O)c1ccncc1)c1ccc(O)cc1O"
classification = "inactive"

[[record]]
compound = "COc1ccc(/C=C/C(=O)c2ccc(Nc3ccnc4cc(Cl)ccc34)cc2)cc1"
classification = "inactive"


Incoming: Answer briefly: the call reported for COc1ccc(-c2nocc2-c2cc(OC)c(OC)c(OC)c2)cc1 in this assay.
Outgoing: active

Incoming: Dear colleague, could you share the recorded outcome for O=S(=O)(NCCCNc1cc(-c2cn(-c3ccccc3)nc2-c2cccc(O)c2)ccn1)c1ccc(Cl)cc1 when you have a moment?
Outgoing: inactive

Incoming: What did the test return for O=C(CN1CCN(c2ccc(Cl)cc2)CC1)N1CCN(c2nnc(-c3ccccc3)c(-c3ccccc3)n2)CC1 ?
Outgoing: inactive

Incoming: Assay outcome for COc1cc2c3c(n(CCCCl)c(=O)c2cc1OC)-c1ccc(C#N)cc1C3=O : what was it?
Outgoing: inactive

Incoming: // return assay outcome for COC(=O)c1ccc(C2SCC(=O)N2NC(=O)C(O)c2ccccc2)cc1 (configuration not stated)
Outgoing: inactive

Incoming: Hey, what did the test say about COc1cc(NC(N)=NCCC(C)(C)c2ccc(C(F)(F)F)cc2)ncc1C#N ?
Outgoing: inactive

Incoming: Kindly provide the recorded test outcome for the following compound: Nc1c(C(=O)Nc2ccccc2)sc2nc3c(cc12)CCCC3
Outgoing: inactive

Incoming: Call for entry O=C([O-])c1ccccc1Nc1ccccc1[O-].[Ni+3].[OH3+].[OH3+].[OH3+] :
Outgoing: inactive

Incoming: Please indicate how the test categorized CSc1nc2c(c(=O)[nH]1)C(c1ccc(Cl)cc1)C1=C(N2)/C(=C/c2ccc(Cl)cc2)CNC1 (configuration not stated) .
Outgoing: inactive
